measuredOn: cGMP-specific 3',5'-cyclic phosphodiesterase (Homo sapiens, UniProt O76074)
Entry class follows IC50: LOW = under 80 nM, MEDIUM = from 80 nM up to 200 nM, HIGH = 200 nM and over

Looking at `Cc1nn(Cc2ccccc2)c(=O)c2nc(C)n3nc(-c4cccnc4)cc3c12` , which class would you pick?
HIGH

Would you mind sorting `Cc1nn(Cc2ccccc2)c(=O)c2ncn3nc(-c4ccccc4)cc3c12` into the appropriate category?
MEDIUM

Consider `COC(=O)CCCCc1nc2c(=O)n(Cc3ccccc3)nc(C)c2c2cc(-c3ccccc3)nn12` . To which IC50 class does it belong?
MEDIUM

Class label required: `Cc1nn(Cc2ccc3c(c2)OCO3)c(=O)c2nc(C)n3nc(-c4ccccc4)cc3c12`
HIGH

Textbook exercise: identify the category of the compound given here, `CCc1nn(Cc2ccccc2)c(=O)c2nc(C)n3nc(-c4ccccc4)cc3c12` , according to its measured value.
HIGH

Note: place this compound into its band. Item: `CC(=O)CCc1nc2c(=O)n(Cc3ccccc3)nc(C)c2c2cc(-c3ccccc3)nn12`
LOW

Any idea which band `Cc1nn(Cc2ccncc2)c(=O)c2nc(C)n3nc(-c4ccccc4)cc3c12` is in?
HIGH

Which band does `CCCc1nc2c(=O)n(Cc3ccccc3)nc(C)c2c2cc(-c3ccccc3)nn12` fall in?
LOW

---

Tested on: Phosphodiesterase 6 (Bos taurus)
experimentalProtocol: Inhibition of PDE6 at 2 uM
For each entry below, report its inhibition value.
One number for each entry, in %.

These recorded examples may help you get a feel for the data.
>>> print(df.to_string())
                                   molecule                        measuredon  unitslabel  observedvalue
0  Cc1nn(C(C)C)c(=O)c2nc(C)n3nc(-c4ccccc4)cc3c12  Phosphodiesterase 6 (Bos taurus)           %            1.2
1  Cc1nc2c(=O)n(Cc3ccccc3)nc(C(C)C)c2c2cc(-c3ccccc3)nn12  Phosphodiesterase 6 (Bos taurus)           %           59.8
2  COC(=O)CCc1nc2c(=O)n(Cc3ccccc3)nc(C)c2c2cc(-c3ccccc3)nn12  Phosphodiesterase 6 (Bos taurus)           %           16.9

Look at each compound and report its inhibition.
1. Cc1nn(Cc2ccccc2)c(=O)c2nc(C)n3nc(-c4ccccc4)cc3c12
2. CCCn1nc(C)c2c(nc(C)n3nc(-c4ccccc4)cc23)c1=O
3. CC(=O)CCc1nc2c(=O)n(Cc3ccccc3)nc(C)c2c2cc(-c3ccccc3)nn12

[25, 6.9, 22.8]

---

Test system: Phosphodiesterase 6 (Bos taurus)
experimentalProtocol: Inhibition of PDE6 at 2 uM
Binning of inhibition into classes: lower range = under 4%, middle range = from 4% up to 20%, upper range = 20% and over

Use the examples below as a reference point.
In [3]: df
Out[3]:
                                   molecule         class
0  CCCCn1nc(C)c2c(nc(C)n3nc(-c4ccccc4)cc23)c1=O   upper range
1  Cc1nn(Cc2ccncc2)c(=O)c2nc(C)n3nc(-c4ccccc4)cc3c12   upper range
2  Cc1nn(Cc2ccccc2)c(=O)c2nc(C)n3nc(-c4ccc(S(C)(=O)=O)cc4)cc3c12   lower range
3  Cc1nn(CCC2CCNCC2)c(=O)c2nc(C)n3nc(-c4ccccc4)cc3c12   upper range
4  Cc1nn(Cc2ccccc2)c(=O)c2nc(C)n3nc(-c4ccc(F)cc4)cc3c12  middle range
5  Cc1nn(Cc2ccc3c(c2)OCO3)c(=O)c2nc(C)n3nc(-c4ccccc4)cc3c12  middle range
6  Cc1nc2c(=O)n(Cc3ccccc3)nc(C3CCCC3)c2c2cc(-c3ccccc3)nn12  middle range
7  COc1cccc(Cn2nc(C)c3c(nc(C)n4nc(-c5ccccc5)cc34)c2=O)c1   lower range

Each molecule maps to one class by inhibition. Which class for `CCc1nn(Cc2ccccc2)c(=O)c2nc(C)n3nc(-c4ccccc4)cc3c12` ?
upper range

State the band of `COC(=O)CCCCc1nc2c(=O)n(Cc3ccccc3)nc(C)c2c2cc(-c3ccccc3)nn12`
lower range

---

Species on record: Homo sapiens
experimentalProtocol: Selectivity for PDE5 over PDE6
endpointName: Selectivity ratio
Give bare numbers.

>>> df
                                   molecule       endpointname  observedvalue
0  CCCc1nc2c(=O)n(Cc3ccccc3)nc(C)c2c2cc(-c3ccccc3)nn12  Selectivity ratio             15

Consider the record given below.
So what's the measured Selectivity ratio for this one? `Cc1nn(Cc2ccccc2)c(=O)c2nc(C)n3nc(-c4ccsc4)cc3c12`
16

---

System: Phosphodiesterase 6 (Bos taurus)
experimentalProtocol: Inhibition of PDE6 at 0.2 uM
endpointName: inhibition

Previously resolved entries follow.
>>> print(df.to_string())
                                   molecule  observedvalue
0  Cc1nc2c(=O)n(Cc3ccccc3)nc(CN3CCN(C)CC3)c2c2cc(-c3ccccc3)nn12            30%
1  Cc1nn(CC(=O)O)c(=O)c2nc(C)n3nc(-c4ccccc4)cc3c12          11.2%

List the reported inhibition of each compound below.
1. CCn1nc(C)c2c(nc(C)n3nc(-c4ccccc4)cc23)c1=O
2. C#CCn1nc(C)c2c(nc(C)n3nc(-c4ccccc4)cc23)c1=O

["53.4%", "0.3%"]

---

measuredOn: cGMP-specific 3',5'-cyclic phosphodiesterase (Homo sapiens, UniProt O76074)
experimentalProtocol: Inhibition of PDE5 at 2 uM
Respond with true (1) for inhibition values of 50% and above, false (0) for values below.

Solved entries:
                                   molecule      class
0  Cc1nn(Cc2ccccc2)c(=O)c2nc(C)n3nc(-c4ccc(F)cc4)cc3c12  false (0)
1  Cc1nc2c(=O)n(Cc3ccccc3)nc(C3CCCC3)c2c2cc(-c3ccccc3)nn12  false (0)
2  CCCCn1nc(C)c2c(nc(C)n3nc(-c4ccccc4)cc23)c1=O   true (1)
3  Cc1nnc(NCc2ccc3c(c2)OCO3)c2nc(C)n3nc(-c4ccccc4)cc3c12   true (1)

Switching to the query record.
Given the entry `Cc1nnc(NCc2ccccc2)c2nc(C)n3nc(-c4ccccc4)cc3c12` , answer whether its inhibition meets or surpasses 50%.
true (1)

---

measuredOn: UniProt O76074
experimentalProtocol: Inhibition of PDE5 at 2 uM
# label = class 1 if inhibition >= 40% else class 0

Observe how each entry below is paired with its result.
In [3]: df
Out[3]:
                                   molecule      measuredon    class
0  CCn1nc(C)c2c(nc(C)n3nc(-c4ccccc4)cc23)c1=O  UniProt O76074  class 1
1  Cc1nn(Cc2ccccc2)c(=O)c2nc(C)n3nc(-c4ccc(S(C)(=O)=O)cc4)cc3c12  UniProt O76074  class 0
2  Cc1nn(CCC2CCNCC2)c(=O)c2nc(C)n3nc(-c4ccccc4)cc3c12  UniProt O76074  class 1
3  CCCn1nc(C)c2c(nc(C)n3nc(-c4ccccc4)cc23)c1=O  UniProt O76074  class 1

Consider the additional compound presented here.
Quick check: does `Cc1nn(C(C)C)c(=O)c2nc(C)n3nc(-c4ccccc4)cc3c12` have inhibition greater than or equal to 40%?
class 1

---

measuredOn: Phosphodiesterase 6 (Bos taurus)
experimentalProtocol: Inhibition of PDE6
endpointName: IC50 (nM)
Give bare numbers, in nM.

Sample answers from the record:
>>> print(df.to_string())
                                   molecule  observedvalue
0  Cc1nn(Cc2ccccc2)c(=O)c2nc(C)n3nc(-c4cccnc4)cc3c12            280
1  Cc1nn(Cc2ccccc2)c(=O)c2nc(C)n3nc(-c4ccsc4)cc3c12           2200
2  Cc1nn(Cc2ccccc2)c(=O)c2ncn3nc(-c4ccccc4)cc3c12            860

# map each compound to its IC50
1. Cc1nn(Cc2ccccc2)c(=O)c2nc(C)n3nc(-c4ccc(Cl)cc4)cc3c12
2. Cc1nn(Cc2ccccc2)c(=O)c2nc(C)n3nc(-c4ccoc4)cc3c12
3. CCCc1nc2c(=O)n(Cc3ccccc3)nc(C)c2c2cc(-c3ccccc3)nn12
4. CCOCc1nn(Cc2ccccc2)c(=O)c2nc(C)n3nc(-c4ccccc4)cc3c12

1. 4700
2. 330
3. 610
4. 330

Ref: ChEMBL document CHEMBL1146047
